Read-out: Vascular cell adhesion molecule 1 (VCAM1), VCAM1 (gene 7412)
Experiment: BSK_hDFCGF_VCAM1: BioMAP Diversity Plus: hDFCGF Assay for Vascular cell adhesion molecule 1 (VCAM1) Biomarker Activity (AID 2283065)
Settings: primary human foreskin fibroblasts; actives raise or lower the signal
Method: BSK_hDFCGF is a cell-based, multiplexed-readout assay that uses foreskin fibroblast, a human skin primary cell, with measurements taken at 24 hours after chemical dosing in a 96-well plate.BSK_hDFCGF_VCAM1 is an assay component measured in the BSK_hDFCGF assay. It measures VCAM-1 antibody related to regulation of gene expression using ELISA technology.Data from the assay component BSK_hDFCGF_VCAM1 was analyzed into 1 assay endpoint. […]
The source made the active and inactive calls. How the source made its calls: active means hit-call score of the fitted dose curve at least 0.9, where 1 is the maximum; inactive means score below 0.9.
Outcomes: active, inactive

>  <Structure smiles string>
CC(=O)/C=C/c1ccccc1

>  <Assigned class>
inactive

$$$$
>  <Structure smiles string>
O=[N+]([O-])C=Cc1ccccc1

>  <Assigned class>
active

$$$$
>  <Structure smiles string>
CCCCCCCCCCCC#N

>  <Assigned class>
active

$$$$

----------
Biological target: Cellular tumor antigen p53 (Homo sapiens)
Test: TOX21_p53_BLA_p3_ratio: Tox21 HCT-116 p53 Agonism Beta-lactamase Assay, Ratio, Phase 3 (AID 2283596)
Results filed as inconclusive are left out. Activity calls are given as the source filed them. How the source made its calls: active means hit-call score of the fitted dose curve at least 0.9, where 1 is the maximum; inconclusive means response in the unintended direction; inactive means score below 0.9.
Classes used: active, inactive

>  <Molecule>
CN[C@@H](C)[C@H](O)c1ccccc1

>  <Assigned class>
inactive

$$$$
>  <Molecule>
S=C(SSC(=S)N1CCCCC1)N1CCCCC1

>  <Assigned class>
inactive

$$$$
>  <Molecule>
CCOP(=S)(OCC)Oc1cnc2ccccc2n1

>  <Assigned class>
inactive

$$$$
>  <Molecule>
CCCCCCCCCCCCCC[P+](CCCCCC)(CCCCCC)CCCCCC (tested in a mixture with another compound)

>  <Assigned class>
active

$$$$
>  <Molecule>
c1ccc2c(c1)[nH]c1cnccc12

>  <Assigned class>
active

$$$$
>  <Molecule>
CC(=O)C1CCOC1=O (stereo not drawn)

>  <Assigned class>
inactive

$$$$
>  <Molecule>
COc1c(C(C)(C)C)cc([N+](=O)[O-])c(C)c1[N+](=O)[O-]

>  <Assigned class>
inactive

$$$$
>  <Molecule>
O=C1C(Cl)C(CCl)CN1c1cccc(C(F)(F)F)c1 (stereo not drawn)

>  <Assigned class>
inactive

$$$$

----------
Assay: TOX21_p53_BLA_p2_viability: Viability Assessment in the Tox21 HCT-116 p53 Agonism Beta-lactamase Assay, Phase 2 (AID 2283591);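 further: compound exposure lasted 16 h at 37 °C; actives lower the ATP signal meaning cytotoxicity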
Records with an inconclusive call do not appear. Activity calls are given as the source filed them. Rule for the calls: active = hit-call score of the fitted dose curve at least 0.9, where 1 is the maximum; inconclusive = response in the unintended direction; inactive = score below 0.9.
Outcomes: active, inactive

>  <Compound>
O=C(Nc1ccccc1)N(Cc1ccc(Cl)cc1)C1CCCC1

>  <Assigned class>
inactive

$$$$
>  <Compound>
O=C(CCl)C(Cl)Cl

>  <Assigned class>
inactive

$$$$
>  <Compound>
CN1CCC(O)(c2ccc(F)cc2)C(C(=O)c2ccc(F)cc2)C1 (centres undefined)

>  <Assigned class>
inactive

$$$$
>  <Compound>
O=[N+]([O-])/C=C/c1ccccc1

>  <Assigned class>
inactive

$$$$
>  <Compound>
CCOC(=O)C1(c2ccccc2)CCN(CCC(C#N)(c2ccccc2)c2ccccc2)CC1

>  <Assigned class>
inactive

$$$$
>  <Compound>
Oc1cc(Cl)c(Cl)c(Cl)c1Cl

>  <Assigned class>
inactive

$$$$
>  <Compound>
Clc1c(Cl)c(Cl)c(Cl)c(Cl)c1Cl

>  <Assigned class>
inactive

$$$$
>  <Compound>
O=[N+]([O-])c1cc(C(F)(F)F)c(Cl)c([N+](=O)[O-])c1Cl

>  <Assigned class>
active

$$$$
>  <Compound>
N#CC1(N=NC2(C#N)CCCCC2)CCCCC1

>  <Assigned class>
inactive

$$$$
